molecular target: human CD33 P203A (human, UniProt P20138 18-364); assay: alanine scan, flow cytometry, HEK293-T;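 further: antibody binding to each alanine-substituted CD33 mutant expressed transiently in HEK293-T, read as fluorescence minus background, mean of duplicates, relative to wild-type CD33 set as 100%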
Sequence (P20138 18-364 P203A limits assumed): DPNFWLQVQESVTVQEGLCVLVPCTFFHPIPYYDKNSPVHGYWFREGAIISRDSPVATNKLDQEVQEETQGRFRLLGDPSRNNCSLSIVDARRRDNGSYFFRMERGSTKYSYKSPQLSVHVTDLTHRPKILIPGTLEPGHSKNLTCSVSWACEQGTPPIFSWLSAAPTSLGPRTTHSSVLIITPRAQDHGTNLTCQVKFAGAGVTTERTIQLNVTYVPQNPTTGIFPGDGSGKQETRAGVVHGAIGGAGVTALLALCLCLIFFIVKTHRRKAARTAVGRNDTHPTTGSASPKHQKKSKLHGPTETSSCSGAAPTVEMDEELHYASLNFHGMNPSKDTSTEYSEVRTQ
Assay metric: Mean % WT Binding (%)

[[record]]
binder = "Refmab #4 (antibody, V domains shown, In the alanine scan antibodies were used as IgG or Fab) VH: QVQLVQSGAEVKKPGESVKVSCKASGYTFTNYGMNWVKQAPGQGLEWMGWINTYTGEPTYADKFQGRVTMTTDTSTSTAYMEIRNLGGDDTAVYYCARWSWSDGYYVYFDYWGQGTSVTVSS VL: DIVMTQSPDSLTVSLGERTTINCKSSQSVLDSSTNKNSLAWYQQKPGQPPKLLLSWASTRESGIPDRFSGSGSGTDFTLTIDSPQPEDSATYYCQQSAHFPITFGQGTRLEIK"
readout_units = "%"
measured = 112

[[record]]
binder = "Refmab #3 (antibody, V domains shown, In the alanine scan antibodies were used as IgG or Fab) VH: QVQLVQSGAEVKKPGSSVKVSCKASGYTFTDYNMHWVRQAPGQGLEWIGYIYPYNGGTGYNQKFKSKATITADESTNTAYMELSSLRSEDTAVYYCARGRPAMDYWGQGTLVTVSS VL: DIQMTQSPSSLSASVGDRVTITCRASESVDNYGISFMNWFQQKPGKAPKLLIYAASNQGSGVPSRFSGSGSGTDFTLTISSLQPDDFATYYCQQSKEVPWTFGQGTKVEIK"
readout_units = "%"
measured = 105

[[record]]
binder = "Refmab #2 (antibody, V domains shown, In the alanine scan antibodies were used as IgG or Fab) VH: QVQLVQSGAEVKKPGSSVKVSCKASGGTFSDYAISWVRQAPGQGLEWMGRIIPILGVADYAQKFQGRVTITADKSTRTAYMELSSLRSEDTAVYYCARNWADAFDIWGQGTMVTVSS VL: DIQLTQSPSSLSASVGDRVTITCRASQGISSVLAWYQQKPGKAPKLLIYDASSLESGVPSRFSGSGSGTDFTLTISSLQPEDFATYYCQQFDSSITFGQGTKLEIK"
readout_units = "%"
measured = 109


Data credit: patent US20260242735A1
